- assay.system: hP2X7R (Homo sapiens, UniProt Q99572)
- Sequence (Q99572 whole entry): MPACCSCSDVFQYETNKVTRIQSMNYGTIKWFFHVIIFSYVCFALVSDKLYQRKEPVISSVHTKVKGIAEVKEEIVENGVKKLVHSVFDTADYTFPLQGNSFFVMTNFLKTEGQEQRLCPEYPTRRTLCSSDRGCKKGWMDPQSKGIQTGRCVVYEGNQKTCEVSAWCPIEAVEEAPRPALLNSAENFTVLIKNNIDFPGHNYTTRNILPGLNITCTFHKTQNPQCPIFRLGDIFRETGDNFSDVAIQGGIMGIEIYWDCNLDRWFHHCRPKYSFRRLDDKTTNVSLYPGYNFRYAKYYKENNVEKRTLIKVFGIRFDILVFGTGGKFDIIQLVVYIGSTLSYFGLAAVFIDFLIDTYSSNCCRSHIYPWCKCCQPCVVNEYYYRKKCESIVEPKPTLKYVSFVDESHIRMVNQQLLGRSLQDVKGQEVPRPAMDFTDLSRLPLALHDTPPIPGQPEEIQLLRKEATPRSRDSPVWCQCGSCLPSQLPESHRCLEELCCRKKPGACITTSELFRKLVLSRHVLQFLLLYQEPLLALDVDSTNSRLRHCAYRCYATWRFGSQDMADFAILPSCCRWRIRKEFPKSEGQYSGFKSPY
- assay.procedure: TEVC determination of antagonist binding kinetics in Xenopus oocytes
- Assay type: cell-based
- Design: expressed in transfected cells; host or cells: Xenopus laevis oocytes injected with capped cRNA (modified pUC19 vector, T7)
- test.parameters: TEVC, Supplementary Fig. 10D; read-out: IC50 from binding equilibrium (plateau) dose inhibition curve
- Description: Xenopus laevis frogs were from Nasco International (Fort Atkinson, WI) and kept at the Core Facility Animal Models (CAM) of the Biomedical Center (BMC) of LMU Munich, Germany (Az:4.3.2–5682/LMU/BMC/CAM) in accordance with the EU Animal Welfare Act. […] Supplementary Fig. 10: Kinetics of ligands binding to the hP2X7R measured by TEVC. […] determined by Ca2+ imaging (18 nM, Fig. 3B ) and the binding equilibrium reached at each […]
I'd appreciate it if you could supply pIC50 values for the items below.
Answers are plain numbers, as −log10 of the molar value.

1. O=C(NNc1ccccc1Cl)C12CC3CC(CC(C3)C1)C2 [UB-ALT-P30, reference compound]: 7.82

// switching to the query molecule
# return recorded pIC50 for entry "CC12CC3CC1(C)C1(C)CC3(C(=O)NNc3ccccc3Cl)CC21C"
8.42

# credit: paper PMC12436592
